All values here come from the supplement of paper PMC5908809.

- Test system: SNK-6 (IL-2 2.5 ng/mL)
- Method summary: drug sensitivity score (DSS) (DSS units); higher = more sensitive; extreme values may be limits of the assay
- Recorded conditions: 72 h
Kindly supply the reported drug sensitivity score values for the records listed here.
Numbers only.

Illustrative cases are given below, each with its answer.
[
  {
    "Compound": "CNC(=O)c1cccc(-c2ccc3c(N4CCOC[C@@H]4C)nc(N4CCOC[C@@H]4C)nc3n2)c1 [AZD2014] (max concentration tested 10000 nM)",
    "Study target": "SNK-6 (IL-2 2.5 ng/mL)",
    "drug sensitivity score": 12.5
  },
  {
    "Compound": "COc1cc2nccc(Oc3ccc(NC(=O)Nc4cc(C)on4)c(Cl)c3)c2cc1OC [Tivozanib] (max concentration tested 10000 nM)",
    "Study target": "SNK-6 (IL-2 2.5 ng/mL)",
    "drug sensitivity score": 8.55
  },
  {
    "Compound": "CC(C)(C)c1cnc(CSc2cnc(NC(=O)C3CCNCC3)s2)o1 [SNS-032] (max concentration tested 10000 nM)",
    "Study target": "SNK-6 (IL-2 2.5 ng/mL)",
    "drug sensitivity score": 13.4
  }
]

For each listed entry, give its drug sensitivity score.
1. O=C(Nc1cccc(Nc2ncc(Br)c(NCCc3cnc[nH]3)n2)c1)N1CCCC1 [BX-912] (max concentration tested 10000 nM)
2. Clc1ccc(C(c2ccccc2Cl)C(Cl)Cl)cc1 (configuration not stated) [Mitotane] (max concentration tested 10000 nM)
3. CC(C)c1cc(-c2n[nH]c(=O)n2-c2ccc3c(ccn3C)c2)c(O)cc1O [Ganetespib] (max concentration tested 1000 nM)
4. Nc1ncn([C@@H]2O[C@H](CO)[C@@H](O)[C@H]2O)c(=O)n1 [Azacitidine] (max concentration tested 10000 nM)
5. COc1ccc(CCc2nc3cc(-c4c(C)noc4C)ccc3n2C[C@H](C)N2CCOCC2)cc1Cl [SGC-CBP30] (max concentration tested 25000 nM)
6. Cc1cc(C)c(CNC(=O)c2cc(-c3ccc(CN4CCOCC4)cc3)cc3c2cnn3C2CCCC2)c(=O)[nH]1 [EPZ-5687] (max concentration tested 10000 nM)

1. 13.4
2. 0
3. 16.5
4. 10.7
5. 2.41
6. 0

* * *

- Test system: IMC-1 (IL-2 20 ng/mL)
- Method summary: drug sensitivity score (DSS) (DSS units); higher = more sensitive; extreme values may be limits of the assay
- Recorded conditions: 72 h
Property measured: drug sensitivity score

Sample records with drug sensitivity score:
[
  {
    "Molecule": "CNC(=O)c1cccc(-c2ccc3c(N4CCOC[C@@H]4C)nc(N4CCOC[C@@H]4C)nc3n2)c1 [AZD2014] (max concentration tested 10000 nM)",
    "drug sensitivity score": 0
  },
  {
    "Molecule": "CCn1cc(-c2ccnc3[nH]c(-c4cccc(CN(C)C)c4)cc23)c(-c2ccc(NC(=O)N(C)C)cc2)n1 (max concentration tested 1000 nM)",
    "drug sensitivity score": 6.3
  },
  {
    "Molecule": "Cc1ccccc1C(C(=O)NC1CCCCC1)N(C(=O)Cn1ccnc1C)c1cccc(F)c1 (stereo unspecified) [AGI-5198] (max concentration tested 10000 nM)",
    "drug sensitivity score": 0
  },
  {
    "Molecule": "Nc1ccccc1NC(=O)c1ccc(CNC(=O)OCc2cccnc2)cc1 [Entinostat] (max concentration tested 10000 nM)",
    "drug sensitivity score": 7.18
  },
  {
    "Molecule": "CNC(=O)c1ccc(N2C(=S)N(c3cnc(C#N)c(C(F)(F)F)c3)C(=O)C23CCC3)cc1F [ARN 509] (max concentration tested 10000 nM)",
    "drug sensitivity score": 0.78
  }
]

Okay, now this molecule:
Report the value of drug sensitivity score obtained on IMC-1 (IL-2 20 ng/mL) for CNC(=O)c1ccc(-c2cnc3ncc(Cc4ccc5ncccc5c4)n3n2)cc1F [NVP-INC280] (max concentration tested 1000 nM) .
0.81
